- system.under.test: Isocitrate dehydrogenase [NADP] cytoplasmic (Homo sapiens, UniProt O75874, R132H)
- Sequence (O75874 2-414 R132H limits assumed): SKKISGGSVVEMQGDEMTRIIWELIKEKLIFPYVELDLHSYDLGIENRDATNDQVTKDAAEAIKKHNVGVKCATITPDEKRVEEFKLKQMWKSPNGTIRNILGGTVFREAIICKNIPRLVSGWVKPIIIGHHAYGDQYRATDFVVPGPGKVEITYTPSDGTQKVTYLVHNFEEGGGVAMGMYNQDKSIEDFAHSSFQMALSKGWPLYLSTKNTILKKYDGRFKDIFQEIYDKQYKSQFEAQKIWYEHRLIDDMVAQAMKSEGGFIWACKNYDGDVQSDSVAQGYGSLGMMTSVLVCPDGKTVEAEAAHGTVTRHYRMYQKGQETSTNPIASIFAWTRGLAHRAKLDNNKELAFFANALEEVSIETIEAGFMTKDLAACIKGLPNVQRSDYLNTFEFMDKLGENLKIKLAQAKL
- protocol: Inhibition of IDH1 R132H mutant (unknown origin)
pIC50: −log10 of the molar value.
quantity: pIC50

Notebook: pull reported pIC50 for Isocitrate dehydrogenase [NADP] cytoplasmic (Homo sapiens, UniProt O75874, R132H), entry "O=C(NC1CCCCC1)[C@@H](c1ccccc1)N(C(=O)Cc1cccs1)c1cccc(F)c1"
< 4.96
